B1: HDV Ribozyme (parent)
chain: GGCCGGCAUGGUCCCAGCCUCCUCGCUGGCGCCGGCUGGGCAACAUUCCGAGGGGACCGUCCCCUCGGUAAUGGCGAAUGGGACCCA

# Variants of: B1
# method.notes: self-cleavage, relative activity (ratio to wild type); higher = more cleavage; co-transcriptional
Everything with self-cleavage lower than 0.4 is Not satisfied; everything else, including exactly 0.4, is Satisfied.

In [3]: df
Out[3]:
    mutation_id  assigned_label
 0     G6C C41G   Not satisfied
 1    G38C C85A   Not satisfied
 2     C7G C63G   Not satisfied
 3    U69A U79C       Satisfied
 4    G67A U69G       Satisfied
 5    A43U U47C       Satisfied
 6    G67C C86G       Satisfied
 7    G54A C75A   Not satisfied
 8     A8G C86A       Satisfied
 9    A16U C41U       Satisfied
10    G40U U46A   Not satisfied
11         G52A       Satisfied
12    C13G C44U   Not satisfied
13    G17C G25A   Not satisfied
14    U27A C32G   Not satisfied
15    U12A A45G   Not satisfied
16    C14U U20G   Not satisfied
17     C7A G29U   Not satisfied
18    G10A C32U       Satisfied
19    G54C C75U   Not satisfied
20    G76A G80A       Satisfied
21    C41G C48U       Satisfied
22    C19G G80C   Not satisfied
23    A70G C86A       Satisfied
24    C19G U23A   Not satisfied
25    U12G C18U   Not satisfied

Measured values drawn from the RNAGym collection of RNA variant scans (doi:10.7554/elife.80360) for this set.
